System: Mus musculus
Test: Neurotoxicity in ip dosed CF1 albino mouse assessed as minimum dose required to cause motor impairment after 0.5 hrs by rotarod test
Assay type: toxicity, organism-based
Details: in vivo
Each entry below lists one item and its recorded MTC value.
endpoint_name: MTC (mg/kg)

{"columns": ["molecule", "test_result"],
 "data": [
  ["O=C(CN1C(=O)C2CCCCC2C1=O)N1CCN(Cc2ccccc2)CC1 (stereo unspecified)", 300],
  ["NC(=O)N1c2ccccc2C=Cc2ccccc21 [CARBAMAZEPINE]", 100],
  ["O=C(CN1C(=O)C2C3C=CC(C3)C2C1=O)N1CCN(c2ccc(F)cc2)CC1 (stereo unspecified)", 300],
  ["O=C(CN1C(=O)c2ccccc2C1=O)N1CCN(c2ccc(F)cc2)CC1", 300],
  ["O=C1NC(=O)C(c2ccccc2)(c2ccccc2)N1", 100],
  ["O=C(CN1C(=O)C2CCCCC2C1=O)N1CCOCC1 (stereo unspecified)", 300]
]}

====

System: Mus musculus
Experiment: Neurotoxicity in CF1 albino mouse assessed as motor impairment at 300 mg/kg, ip after 4 hrs by rotarod test
Type: toxicity, organism-based
Parameters: dose 300 mg/kg, route intraperitoneal
Conditions: in vivo

{"columns": ["compound", "Activity"],
 "data": [
  ["O=C(CN1C(=O)C2CCCCC2C1=O)N1CCN(c2ccccc2)CC1 (stereo unspecified)", "Non-toxic"],
  ["O=C(CN1C(=O)c2ccccc2C1=O)N1CCN(Cc2ccccc2)CC1", "Non-toxic"],
  ["O=C(CN1C(=O)c2ccccc2C1=O)N1CCN(CCO)CC1", "Non-toxic"],
  ["O=C(CN1C(=O)c2ccccc2C1=O)N1CCN(c2cccc(Cl)c2Cl)CC1", "Non-toxic"],
  ["O=C(CN1C(=O)C2CCCCC2C1=O)N1CCN(c2cccc(C(F)(F)F)c2)CC1 (stereo unspecified)", "Non-toxic"],
  ["O=C(CN1C(=O)C2CCCCC2C1=O)N1CCN(c2cccc(Cl)c2)CC1 (stereo unspecified)", "Non-toxic"]
]}
